Molecular target: stearoyl-CoA desaturase (SCD) (Mus musculus, UniProt P13516)
Construct: Reactions are started by adding 2 mg of microsomal protein; from tissue; host or cells: liver microsomes of male ICR mice on a high-carbohydrate, low fat diet
Experiment: HTS microsomal assay of stearoyl-CoA desaturase inhibition using mouse liver microsomes
Format: biochemical
Conditions: % SCD enzyme activity remaining at 10 μM test compound
quantity_name: Mouse microsome SCD activity % remaining @ 10 μM (%)
Please give a number only; it is taken to be in %.

These solved cases illustrate the format of a correct answer.
CC(C(=O)N1CCN(c2ccc(C(=O)NCCC3CC3)nn2)CC1)(C(F)(F)F)C(F)(F)F	8
O=C(NCc1ccc(F)cc1)Nc1ccc(N2CCN(C(=O)c3ccccc3C(F)(F)F)CC2)nn1	6
CC(c1ccccc1C(F)(F)F)N1CCN(c2ccc(C(=O)NCCC3CC3)nn2)CC1.Cl (centres unmarked)	24
O=C(Nc1ccc(F)cc1)Nc1ccc(N2CCN(C(=O)c3ccccc3C(F)(F)F)CC2)nn1	82

Let us move to another entry and its Mouse microsome SCD activity % remaining @ 10 μM.
Q) For the compound shown here, CC(C)CCNC(=O)c1ccc(N2CCN(C(=O)CC(C)C(F)(F)F)CC2)nn1 (centres unmarked) , give the reported Mouse microsome SCD activity % remaining @ 10 μM.
A) 11

----------
Quick reference for melting point among some compounds

Q) Could you tell me which melting point is on file for CC(O)(C(=O)N1CCN(c2ccc(C(=O)NCCC3CC3)nn2)CC1)C(F)(F)F (centres unmarked) [Example 14.8] ?
A) 181 to 183 °C

Q) // returns reported melting point for input O=C(NCCC1CC1)Nc1ccc(N2CCN(C(=O)c3ccccc3C(F)(F)F)CC2)nn1
A) > 300 °C

Q) Endpoint output: melting point of O=C(NCC(O)c1cccc(F)c1)c1ccc(N2CCN(C(=O)c3ccccc3C(F)(F)F)CC2)nn1 (centres unmarked) [Example 27.4] . Value?
A) 117 to 119 °C

Q) Given the entry O=C(NCCc1ccccn1)c1ccc(N2CCN(C(=O)c3ccccc3C(F)(F)F)CC2)nn1 [Example 28.2] , report its measured melting point.
A) 151 to 154 °C

Q) Please report the recorded melting point for O=C(NCCC1CC1)c1ccc(N2CCN(Cc3ccccc3C(F)(F)F)CC2)nn1 .
A) 106 to 108 °C

----------
Biological target: SCD (Mus musculus)
Sequence (P13516 1-355): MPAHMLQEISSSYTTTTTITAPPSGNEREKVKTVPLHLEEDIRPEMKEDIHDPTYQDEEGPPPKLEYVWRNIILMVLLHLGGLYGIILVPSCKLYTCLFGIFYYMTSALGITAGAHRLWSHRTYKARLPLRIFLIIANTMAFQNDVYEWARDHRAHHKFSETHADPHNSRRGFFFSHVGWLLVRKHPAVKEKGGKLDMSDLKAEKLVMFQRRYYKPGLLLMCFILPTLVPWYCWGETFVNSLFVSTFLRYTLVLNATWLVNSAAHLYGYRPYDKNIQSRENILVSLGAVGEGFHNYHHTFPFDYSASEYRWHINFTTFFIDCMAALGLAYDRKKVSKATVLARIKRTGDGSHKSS
quantity_name: log10 of IC50 (log10 of the value in nM)
Hi team, quick reminder: these entries are log10 of IC50 (nM).

O=C(NCCC1CC1)c1ccc(N2CCN(Cc3cc(F)ccc3C(F)(F)F)CC2)nn1	1.30
CC(C(=O)N1CCN(c2ccc(C(=O)NCCC3CC3)nn2)CC1)(C(F)(F)F)C(F)(F)F	2.04
COc1ccc(CCNC(=O)c2ccc(N3CCN(C(=O)c4ccccc4C(F)(F)F)CC3)nn2)cc1	3.21
CC(C)CCNC(=O)c1ccc(N2CCN(C(=O)c3ccccc3[N+](=O)[O-])CC2)nn1	1.90

Q) Look up log10 of IC50 for this compound: CCCCCNC(=O)Nc1ccc(N2CCN(C(=O)c3ccccc3C(F)(F)F)CC2)nn1
A) 1.00

Q) Which log10 of IC50 reading was recorded for the compound O=C(NCCC1CC1)c1ccc(N2CCN(Cc3ccc(F)cc3Cl)CC2)nn1 ?
A) 2.11

Q) Requested read-out: log10 of IC50. Entry: CC(=CC(=O)N1CCN(c2ccc(C(=O)NCCC(C)C)nn2)CC1)C(F)(F)F
A) 2.53

Q) Requested read-out: log10 of IC50. Entry: O=C(NCCC1CC1)c1ccc(N2CCN(Cc3cc(Cl)ccc3C(F)(F)F)CC2)nn1
A) 1.78

Q) Look up log10 of IC50: O=C(NCC1CC1)c1ccc(N2CCN(C(=O)c3ccccc3C(F)(F)F)CC2)nn1
A) 3.94

Q) Would you mind telling me what log10 of IC50 value was observed for O=C(NCCC1CC1)c1ccc(N2CCN(C(=O)Cc3ccccc3C(F)(F)F)CC2)nn1 ?
A) 2.77

Q) Recorded log10 of IC50 of CC(C)CCNC(=O)c1ccc(N2CCN(C(=O)c3ccccc3N)CC2)nn1 , please.
A) 2.65
